These measurements were taken from patent US20200199207A1.

Target: T1, Peptide 11 (peanut)
T1 construct: also called linear Ara h 2 peptide 11
T1 peptide: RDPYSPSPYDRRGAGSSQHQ
Test: competition ELISA, peptide in solution vs coated Ara h 2
measured-quantity: binding result

h12G10 (antibody, human IgG1, V domains shown, Recombinant human IgG; also called hMAb 12G10) VH: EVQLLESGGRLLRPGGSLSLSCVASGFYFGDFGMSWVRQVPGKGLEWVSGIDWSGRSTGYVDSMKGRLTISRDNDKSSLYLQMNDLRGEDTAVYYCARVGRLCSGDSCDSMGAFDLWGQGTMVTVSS VL: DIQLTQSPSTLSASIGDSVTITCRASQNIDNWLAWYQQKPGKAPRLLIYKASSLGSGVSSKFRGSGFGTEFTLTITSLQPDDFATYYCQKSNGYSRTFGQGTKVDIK :: binds
h37D5 (antibody, V domains shown, Recombinant human IgG; also called hMAb 37D5) VH: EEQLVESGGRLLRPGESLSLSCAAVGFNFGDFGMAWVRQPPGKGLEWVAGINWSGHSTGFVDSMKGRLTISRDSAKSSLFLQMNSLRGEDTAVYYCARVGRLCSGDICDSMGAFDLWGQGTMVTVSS VL: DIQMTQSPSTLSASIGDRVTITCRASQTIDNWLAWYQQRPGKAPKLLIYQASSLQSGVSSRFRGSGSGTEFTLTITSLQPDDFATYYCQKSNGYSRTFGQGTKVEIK :: binds
